Source listed as patent US20200223906A1.

- Target or system: T1, RSV F subtype B, furin-cleaved ectodomain stabilized in the postfusion conformation (F ΔFP) (Respiratory syncytial virus subtype B)
- T1 construct: extracellular domain; Trimeric soluble antigen; also called Postfusion subtype B
- Assay details: BLI, IgG on AHQ sensor, 100 nM antigen
Property label: pKd
Formally, pKd is defined as -log10 of the concentration c, with c in mol/L.

ADI-18946 (antibody, V domains shown, full-length IgG from yeast) VH: QVQLVQSGGGVVQPGRSLRLSCAASGFTFSDYAMHWVRQAPGKGLEWVAIISYDANNKYYADSVKGRFTISRDNSKNTVYLQMNSLRPEDTAVYYCAKEEWLVPAYWGQGILVTVSS VL: QSVLTQPASVSGSPGQSITISCTGTSSDVGGYNYVSWYQQHPGKAPKLLIYEVSNRPSGVSNRFSGSKSGNTASLTISGLQPEDEADYYCSSYSTNSAPFGTGTKLTVL : 9.78

Bench note: what pKd did ADI-18897 (antibody, V domains shown, full-length IgG from yeast) VH: EVQLVESGGGLVQPGGSLRLSCAASGFTIGTYWMSWVRQAPGKGLEWVANIKPDGSEQYYGDSVKGRFTISRDNAKNSLYLQMHSLRAEDAAVFYCARDTPDVLRHLEWPPVGAFDIWGQGTTVTVSS VL: EIVMTQSPDSLAVSLGERATINCKSSQSLFYSSTNQHYLAWYQQKPGQPPELLIYWASIRESGVPDRFSGSGSGTDFTLTISSLQAADVAVYYCQQYYSSPQTFGQGTKVEIK show?
9.73
